Readings of pKi for the listed compounds
assay comment: Binding affinity for rodent 5-hydroxytryptamine 5A receptor
pKi: −log10 of the molar value.

{"smiles data": "CCN(CC)C(=O)[C@@H]1C=C2c3cccc4[nH]c(Br)c(c34)C[C@H]2N(C)C1", "assay endpoint": "pKi", "result": "> 8.00"}

Query: Determine from records and report pKi for `CCN(CC)C(=O)[C@@H]1C=C2c3cccc4[nH]c(I)c(c34)C[C@H]2N(C)C1`
Reply: > 8.00

Query: Determine from records and report pKi for `Oc1ccc2cccc(N3CCNCC3)c2c1`
Reply: 8.52

---

assay comment: Binding affinity of compound towards rodent 5-hydroxytryptamine 7 receptor
assay endpoint: pKi
Scale: negative log10 of molar concentration, which is what pKi denotes.

Query: Determine from records and report pKi for `CCCCC(=O)c1ccc(F)cc1`
Reply: 6.85
